compounds and their reported pIC50
SYSTEM_NAME: hERG (Homo sapiens (Human), UniProt Q12809)
Sequence (Q12809 whole entry): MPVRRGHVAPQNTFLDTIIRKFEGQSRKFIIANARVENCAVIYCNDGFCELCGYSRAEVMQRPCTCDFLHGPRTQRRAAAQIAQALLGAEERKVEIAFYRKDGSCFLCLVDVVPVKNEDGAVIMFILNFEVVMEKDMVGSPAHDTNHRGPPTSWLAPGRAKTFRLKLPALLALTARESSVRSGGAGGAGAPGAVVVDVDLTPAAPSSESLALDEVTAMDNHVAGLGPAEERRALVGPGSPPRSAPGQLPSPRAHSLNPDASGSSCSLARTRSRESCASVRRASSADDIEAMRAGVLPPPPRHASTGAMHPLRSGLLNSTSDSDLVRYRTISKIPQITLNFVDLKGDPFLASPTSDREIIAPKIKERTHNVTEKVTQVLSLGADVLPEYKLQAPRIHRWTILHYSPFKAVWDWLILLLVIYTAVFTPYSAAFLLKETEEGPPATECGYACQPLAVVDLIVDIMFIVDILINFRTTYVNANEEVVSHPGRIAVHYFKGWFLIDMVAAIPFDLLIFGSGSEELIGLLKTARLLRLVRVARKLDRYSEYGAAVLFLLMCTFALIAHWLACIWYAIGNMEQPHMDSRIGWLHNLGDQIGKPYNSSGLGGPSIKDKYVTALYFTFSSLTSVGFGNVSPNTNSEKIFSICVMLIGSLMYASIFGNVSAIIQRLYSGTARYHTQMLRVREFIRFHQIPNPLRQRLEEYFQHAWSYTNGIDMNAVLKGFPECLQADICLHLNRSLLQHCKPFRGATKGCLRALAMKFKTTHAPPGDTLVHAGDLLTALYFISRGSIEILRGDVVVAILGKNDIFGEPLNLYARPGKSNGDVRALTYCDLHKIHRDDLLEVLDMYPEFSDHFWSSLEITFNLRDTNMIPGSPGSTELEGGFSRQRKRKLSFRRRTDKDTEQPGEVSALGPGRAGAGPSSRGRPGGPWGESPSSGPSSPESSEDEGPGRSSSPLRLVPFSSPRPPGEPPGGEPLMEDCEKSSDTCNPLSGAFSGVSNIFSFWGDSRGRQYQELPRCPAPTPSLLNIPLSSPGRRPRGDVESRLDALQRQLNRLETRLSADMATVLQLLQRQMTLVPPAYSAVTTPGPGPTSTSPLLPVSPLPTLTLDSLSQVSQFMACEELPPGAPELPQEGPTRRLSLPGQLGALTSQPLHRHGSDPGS
ASSAY_NOTES: Human ERG (hERG) assay, hERG currents in hERG-expressing CHO cells
Assay type: cell-based
CONDITION_SET: hERG-expressing CHO cells
Experimental: The voltage-dependent potassium channel encoded by the human ether-a-go-go-related gene (hERG) is believed to play a key role in repolarisation of the ventricular cardiac action potential. […] This can lead to prolongation of the QT interval recorded in man on an electrocardiogram and to a potentially fatal cardiac arrhythmia known as Torsades de Pointes. hERG currents were recorded from hERG-expressing CHO cells. […]
pIC50: −log10 of the molar value.
MEASUREMENT_LABEL: pIC50

| COMPOUND | VALUE |
| --- | --- |
| CNC[C@@H](c1ccc2ccccc2c1)[C@@H](O)c1ccc2c(c1)OCCO2 (racemic) | 4.96 |
| CNC[C@H](c1ccc(Cl)c(Cl)c1)[C@@H](O)c1cccc(NC(C)=O)c1 | 4.48 |
| CNC[C@H](c1ccc(Cl)c(Cl)c1)[C@H](O)c1ccccc1I | 5.39 |
| CNC[C@H](c1ccc2ccccc2c1)[C@@H](F)c1ccccc1 | 4.96 |
| CNC[C@H](c1ccc(Cl)c(Cl)c1)[C@@H](O)c1ccccc1[N+](=O)[O-] | 4.72 |
| CNC[C@@H](c1ccc(Cl)c(Cl)c1)[C@@H](O)c1cccc(SC)c1 | 5.66 |
| CNCC(c1ccc(Cl)c(Cl)c1)[C@H](O)c1ccccc1 (mixture of isomers) | 5.01 |
| CNCC(Cc1ccccc1C)c1ccc2ccccc2c1 (stereo not shown) [Compound 134] | 5.21 |
| CNC[C@H](c1ccc(Cl)c(Cl)c1)[C@H](O)c1ccccc1 | 5.04 |
| CNCC(c1ccc2ccccc2c1)[C@H](CO)c1ccccc1 (single isomer, unassigned) | 4.48 |
| CN(C)C[C@H](c1ccc2ccccc2c1)[C@H](OCCO)c1ccccc1 | 5.18 |
| CNC[C@@H](c1ccc(Cl)c(Cl)c1)[C@@H](O)c1ccccc1 | 4.96 |
| CNCC(Cc1ccc(C)s1)c1ccc2ccccc2c1 (stereo not shown) | 5.51 |
| CN(C)C[C@H](c1ccc2ccccc2c1)[C@H](O)c1ccccc1 | 5.37 |
| CNC[C@H](c1ccc2ccccc2c1)[C@H](O)c1cccnc1 (racemic) | 4.60 |
| CCNC(=O)CO[C@H](c1ccccc1)[C@H](CNC)c1ccc2ccccc2c1 | 4.60 |
| CN(C)C[C@H](c1ccc2ccccc2c1)[C@H](O)c1cccs1 (racemic) | 5.51 |
| CNC[C@@H](Cc1ccc(C)s1)c1ccc2ccccc2c1 | 5.48 |
| CNC[C@H](c1ccc(Cl)c(Cl)c1)[C@H](O)c1ccccc1SC | 5.39 |
| CNC[C@H](c1ccc(Cl)c(Cl)c1)[C@H](O)c1cccc(OC)n1 | 4.92 |
| CNC[C@H](c1ccc2ccccc2c1)[C@H](O)c1ccc(Cl)nc1 | 5.12 |
| CNC[C@H](c1ccc2ccccc2c1)[C@@H](O)c1ccccc1F | 4.55 |
| CNC[C@@H](c1ccc2ccccc2c1)[C@@H](O)c1cccnc1 | 4.60 |
| CNC[C@@H](c1ccc(Br)c(Cl)c1)[C@@H](O)c1ccccc1 | 5.17 |
| CNC[C@H](c1ccc2ccccc2c1)[C@H](OCC(=O)N1CCCC1)c1ccccc1 | 4.77 |
| C[C@](CN)(Cc1cccnc1)c1ccc2ccccc2c1 | 4.57 |
| CNCC(Cc1ccccc1OC)c1ccc2ccccc2c1 (stereo not shown) [Compound 132] | 5.33 |
| CNC[C@H](c1ccc(Cl)c(Cl)c1)[C@H](O)c1ccccc1OC | 5.10 |
| NC[C@H](c1ccc2ccccc2c1)[C@@H](O)c1ccncc1Cl | 4.48 |
| CNCC(c1ccc(Br)c(Cl)c1)[C@H](O)c1ccccc1 (stereo partly shown) | 5.30 |
| CNCC(CCc1ccccc1)[C@H](O)c1ccccc1 (stereo partly shown) | 4.82 |
| CNCC(Cc1ccccc1CO)c1ccc2ccccc2c1 (stereo not shown) [Compound 90] | 4.92 |
| CNC[C@H](c1ccc2ccccc2c1)[C@H](OCc1nc(C)no1)c1ccccc1 | 4.82 |
| CNC[C@H](c1ccc(Cl)c(Cl)c1)[C@@H](O)c1cccc(I)c1 | 5.42 |
| CNC[C@@H](c1ccc(Cl)c(Cl)c1)[C@H](O)c1cccc(NC(C)=O)c1 | 4.48 |
| NC[C@@H](c1ccc2ccccc2c1)C(O)c1ccncc1Cl (stereo partly shown) | 4.62 |
| CNC[C@@H](Cc1ccccc1)c1ccc2ccccc2c1 | 5.19 |
